All values here come from patent US10077271B2.

The reader will find reported IC50 values listed item by item below.
Target: Menin MLL 4-43 (Homo sapiens, UniProt O00255)
Construct: 6His
Sequence (O00255 1-610): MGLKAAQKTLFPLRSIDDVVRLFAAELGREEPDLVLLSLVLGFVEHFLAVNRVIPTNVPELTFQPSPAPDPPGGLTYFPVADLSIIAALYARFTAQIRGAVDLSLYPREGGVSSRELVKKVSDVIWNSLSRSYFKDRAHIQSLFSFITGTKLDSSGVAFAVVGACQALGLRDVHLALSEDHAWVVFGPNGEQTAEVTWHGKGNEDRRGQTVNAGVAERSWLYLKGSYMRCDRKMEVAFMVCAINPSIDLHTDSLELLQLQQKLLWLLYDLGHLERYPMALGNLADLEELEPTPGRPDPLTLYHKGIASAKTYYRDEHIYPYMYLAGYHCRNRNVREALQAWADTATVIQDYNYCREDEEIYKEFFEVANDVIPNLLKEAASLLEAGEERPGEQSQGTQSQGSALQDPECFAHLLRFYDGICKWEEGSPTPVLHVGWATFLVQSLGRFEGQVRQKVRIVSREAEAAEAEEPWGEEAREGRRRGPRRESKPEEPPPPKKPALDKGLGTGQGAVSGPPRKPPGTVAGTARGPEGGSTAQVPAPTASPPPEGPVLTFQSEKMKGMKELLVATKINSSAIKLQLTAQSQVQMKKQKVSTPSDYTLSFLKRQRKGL
Assay: Inhibition of the menin-MLL interaction (Menin MLL 4-43 IC50)
Format: binding
Settings: Formula II inhibitors of menin (Table 4G)

These solved cases illustrate the format of a correct answer.
> print(dat)
                                   compound  observed.measurement
1  Cc1c(CN2CCC(Nc3nc(C(F)F)nc4sc(CC(F)(F)F)cc34)CC2)ccc2c1cc(C#N)n2Cc1cn[nH]c1 [II-18]            > 10000 nM
2  C=CC(=O)Nc1ccc(CCC2C(C#N)=Cc3c2ccc(CN2CCC(Nc4nc(N)nc5sc(CC(F)(F)F)cc45)CC2)c3C)cn1 (centres unmarked) [II-19]        100 to 1000 nM
3  Cc1c(CN2CCC(Nc3nc(Cl)nc4sc(CC(F)(F)F)cc34)CC2)ccc2[nH]c(C#N)cc12 [II-7]            > 10000 nM

Notebook: Cc1nc(NC2CCN(Cc3ccc4c(cc(C#N)n4Cc4cn[nH]c4)c3C)CC2)c2cc(CC(F)(F)F)sc2n1 [II-10] , IC50 read as ≤ 100 nM

Notebook: Cc1c(CN2CCC(Nc3nc(C#N)nc4sc(CC(F)(F)F)cc34)CC2)ccc2c1cc(C#N)n2Cc1cn[nH]c1 [II-14] , IC50 read as 1000 to 10000 nM

Notebook: C#Cc1nc(NC2CCN(Cc3ccc4c(cc(C#N)n4Cc4cn[nH]c4)c3C)CC2)c2cc(CC(F)(F)F)sc2n1 [II-17] , IC50 read as > 10000 nM
